# measuredOn: Thromboxane-A synthase (Homo sapiens, UniProt P24557)
# Sequence (P24557 whole entry): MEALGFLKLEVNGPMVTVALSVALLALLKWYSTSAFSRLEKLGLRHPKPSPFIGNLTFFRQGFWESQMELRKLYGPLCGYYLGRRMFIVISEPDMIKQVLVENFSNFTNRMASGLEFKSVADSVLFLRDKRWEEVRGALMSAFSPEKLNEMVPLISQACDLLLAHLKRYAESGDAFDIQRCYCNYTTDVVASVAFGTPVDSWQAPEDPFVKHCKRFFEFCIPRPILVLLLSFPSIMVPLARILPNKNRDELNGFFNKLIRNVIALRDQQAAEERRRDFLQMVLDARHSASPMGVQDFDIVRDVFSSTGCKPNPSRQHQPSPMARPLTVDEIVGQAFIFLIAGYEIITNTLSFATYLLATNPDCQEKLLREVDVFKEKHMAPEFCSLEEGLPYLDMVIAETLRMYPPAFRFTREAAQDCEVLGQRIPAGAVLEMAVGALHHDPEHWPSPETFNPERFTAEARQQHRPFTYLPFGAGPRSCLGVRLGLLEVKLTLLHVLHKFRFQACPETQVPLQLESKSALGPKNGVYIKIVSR
# testProtocol: In vitro inhibition of TXB2 production by incubating prostaglandin H2 with human platelet microsomes.
pIC50: recorded values
pIC50 field: float, defined as -log10 of concentration (mol/L).

Previously resolved entries follow.
Please give measured pIC50 of the following entry: `CCOC(=O)CCCCO/N=C(\c1cccnc1)c1cccc(CNS(=O)(=O)c2ccc(Cn3c(C)nc4cnccc43)cc2)c1`
8.24

Please give measured pIC50 of the following entry: CCOC(=O)CCCCO/N=C(\c1ccc(C(=O)N2CCN(C(=O)C3CSC(c4cccnc4)N3)CC2)cc1)c1cccnc1 (stereo unspecified)
7.36

Please give measured pIC50 of the following entry: CCOC(=O)CCCCO/N=C(\c1cccnc1)c1cccc(NC(=O)C2CSC(c3cccnc3)N2)c1 (stereo unspecified)
7.68

Please give measured pIC50 of the following entry: CCOC(=O)CCCCO/N=C(\c1ccc(CN2CCN(C(=O)C3CSC(c4cccnc4)N3)CC2)cc1)c1cccnc1 (stereo unspecified)
7.14

Please give measured pIC50 of the following entry: O=C(O)CCCCO/N=C(\c1cccnc1)c1cccc(CN2CCN(C(=O)C3CSC(c4cccnc4)N3)CC2)c1 (stereo unspecified)
7.92

Now examine the next entry.
Please give measured pIC50 of the following entry: CCOC(=O)CCCCO/N=C(\c1ccc(C(=O)N2CCc3c(sc4c3C(c3ccccc3Cl)=NC(C)c3nnc(C)n3-4)C2)cc1)c1cccnc1 (stereo unspecified)
7.14

###

log10 IC50: recorded values
# measuredOn: Thromboxane-A synthase (Homo sapiens, UniProt P24557)
# testProtocol: In vitro inhibition of TXB2 production by incubating prostaglandin H2 with human platelet microsomes.
Values below are the log10 of the recorded IC50, with nM as the unit.

Please give measured log10 IC50 of the following entry: CCOC(=O)CCCCO/N=C(\c1ccc(NC(=O)c2ccn3c2CSC3c2cccnc2)cc1)c1cccnc1 (stereo not given)
0.56

Please give measured log10 IC50 of the following entry: CCOC(=O)CCCCO/N=C(\c1cccnc1)c1cccc(NC(=O)c2ccn3c2CSC3c2cccnc2)c1 (stereo not given)
0.08

Please give measured log10 IC50 of the following entry: `CCOC(=O)CCCCO/N=C(/c1ccccc1)c1cccnc1`
0.00

---
Please give measured log10 IC50 of the following entry: CCOC(=O)CCCCO/N=C(\c1ccc(NC(=O)C2CSC(c3cccnc3)N2)cc1)c1cccnc1 (stereo not given)
1.32

###

# measuredOn: Thromboxane-A synthase (Homo sapiens, UniProt P24557)
# testProtocol: In vitro inhibition of TXB2 production by incubating prostaglandin H2 with human platelet microsomes.
# Type: functional
pIC50: recorded values
pIC50 field: float, defined as -log10 of concentration (mol/L).

Please give measured pIC50 of the following entry: `CCOC(=O)CCCCO/N=C(/c1cccnc1)c1cccc(CNS(=O)(=O)c2ccc(Cn3c(C)nc4cnccc43)cc2)c1`
8.33

Please give measured pIC50 of the following entry: CCOC(=O)CCCCO/N=C(/c1cccnc1)c1cccc(C(=O)N2CCN(C(=O)C3CSC(c4cccnc4)N3)CC2)c1 (stereo unspecified)
7.28

Please give measured pIC50 of the following entry: CCOC(=O)CCCCO/N=C(\c1cccnc1)c1cccc(CN2CCN(C(=O)C3CSC(c4cccnc4)N3)CC2)c1 (stereo unspecified)
7.06

---
Please give measured pIC50 of the following entry: CCOC(=O)CCCCO/N=C(/c1cccnc1)c1cccc(C(=O)N2CCc3c(sc4c3C(c3ccccc3Cl)=NC(C)c3nnc(C)n3-4)C2)c1 (stereo unspecified)
7.19

Please give measured pIC50 of the following entry: `Cc1nc2cnccc2n1Cc1ccc(S(=O)(=O)NCc2cccc(/C(=N\OCCCCC(=O)O)c3cccnc3)c2)cc1`
8.74
